target: P. furiosus (Pf) Mre11, wild type (P. furiosus, UniProt Q8U1N9 1-426); assay: FRET or BRET
measured_parameter: binding result

[[record]]
binder = "P. furiosus Rad50^NBD [change] [change]/[change], fluorophore-labeled (domain or fragment) MKLERVTVKNFRSHSDTVVEFKEGINLIIGQNGSGKSSLLDAILVGLYWPCRIKDIKKDEFTKVGARDTYIDLIFEKDGTKYRITRRFLKGYSSGEIHAMKRLVGNEWKHVTEPEEKAISAFMEKLIPYNIFLNAIYIRQGQIDAILESDEAREKVVREVLNLDKFETAYKKLSELKKTINNRIKEYRDILARTEGGAGGAGGRERVKKEIKDLEKAKDFTEELIEKVKKYKALAREAALSKIGELASEIFAEFTEGKYSEVVVRAEENKVRLFVVWEGKERPLTFLSGGERIALGLAFRLAMSLYLAGEISLLILDEPTPYLDEERRRKLITIMERYLKKIPQVILVSHDEELKDAADHVIRISLENGSSKVEVVS"
value_measured = "binds"

